# protocol_summary: Plasma concentration versus time of Compound I and metabolite Compound III in patients dosed QD or BID with Form B of Compound II plus fulvestrant
# Assay type: in vivo, human
# settings: human, plasma, oral, 500 mg, 500 mg QD of Form B, Day 29, 3.0 h, Mean; read-out: Compound I Concentration
measured_property: concentration at 3 h (ng/mL)
Answer in ng/mL, number only, no unit symbol.

Could you tell me which concentration at 3 h is on file for CC(C)N1CCN(c2ccc(Nc3ncc4cc5n(c4n3)C3(CCCCC3)CNC5=O)nc2)CC1 ?
40.3

----------
# protocol_summary: Noncompartmental pharmacokinetic parameters (Cmax, Tmax, AUC, Racc) in QD and BID cohorts of Form B
# Format: in vivo, human
# settings: human, plasma, oral, 650 mg, Compound III; 650 mg QD of Form B; Cohort 5; Day 29; read-out: Tmax (Mean)
measured_property: Tmax (h)
Give a bare numeral; the unit h is implied.

Item O=C1NCC2(CCCCC2)n2c1cc1cnc(Nc3ccc(N4CCNCC4)cn3)nc12 [Compound III] has what recorded Tmax?
7
